Assay: Liver Microsome Stability Assay (mouse)
Settings: mouse liver microsomes, with NADPH, 1.0 uM compound
// NB: equality with 7% counts as condition not met; only Liver Microsome Stability (Multiple Species): Mouse - % Remaining after 30 min w/NADPH strictly below is condition met

COMPOUND: O=C(CO)Nc1ccc(N2CCC[C@@H]2c2csc(NC(=O)c3cccn3Cc3ccnc(F)c3)n2)cc1
CLASS_LABEL: condition met

COMPOUND: CC(C)n1cnc(/C=C/c2csc(NC(=O)c3cccn3CC3CCOCC3)n2)c1
CLASS_LABEL: condition met

COMPOUND: O=C(Nc1nc([C@H]2CCCN2c2ncccn2)cs1)c1cccn1Cc1ccncc1
CLASS_LABEL: condition met

COMPOUND: Cc1cc(C(=O)Nc2nc([C@H]3CCCN3c3ccc(OC4CCN(C(N)=O)CC4)cc3)cs2)n(Cc2ccnc(F)c2)c1
CLASS_LABEL: condition not met

COMPOUND: CC(=O)N1CCC(Oc2ccc(N3CCC[C@@H]3c3csc(NC(=O)c4cccn4Cc4ccnc(F)c4)n3)cc2Cl)CC1
CLASS_LABEL: condition not met

COMPOUND: CC(=O)N1CCC(Oc2ccc(N3CCC[C@@H]3c3csc(NC(=O)c4cccn4Cc4ccnc(F)c4)n3)c(F)c2)CC1
CLASS_LABEL: condition met

COMPOUND: O=C(Nc1nc(/C=C/c2ncoc2C2CCCCC2)cs1)c1cccn1Cc1ccnc(F)c1
CLASS_LABEL: condition not met

COMPOUND: CC(C)c1cccc2nc(/C=C/c3csc(NC(=O)c4cccn4Cc4ccncc4)n3)cn12
CLASS_LABEL: condition met

COMPOUND: O=C(Nc1nc(/C=C/C2CN(S(=O)(=O)c3ccccc3)CCO2)cs1)c1cccn1Cc1ccncc1 (stereo not shown)
CLASS_LABEL: condition met

COMPOUND: CC(C)c1cc(/C=C/c2csc(NC(=O)c3cccn3Cc3ccnc(F)c3)n2)n(C)n1
CLASS_LABEL: condition not met

COMPOUND: CC(=O)N1CCC(C)(Oc2ccc(N3CCC[C@@H]3c3csc(NC(=O)c4cccn4Cc4ccnc(F)c4)n3)cc2)CC1
CLASS_LABEL: condition met

COMPOUND: N#CCCn1cnc(/C=C/c2csc(NC(=O)c3cccn3Cc3ccnc(F)c3)n2)c1
CLASS_LABEL: condition not met

COMPOUND: COc1ccc(O[C@@H]2CCC[C@H](c3csc(NC(=O)c4cccn4Cc4ccncc4)n3)C2)nc1
CLASS_LABEL: condition met

COMPOUND: O=C(Nc1nc(/C=C/c2cn(C3CCCCC3)cn2)cs1)c1cccn1Cc1ccnc(F)c1
CLASS_LABEL: condition met

COMPOUND: CC(C)n1cnc(/C=C/c2csc(NC(=O)c3cccn3Cc3ccnc(F)c3)n2)c1
CLASS_LABEL: condition not met

COMPOUND: COC(=O)Nc1ccc(N2CCC[C@@H]2c2csc(NC(=O)c3cc(C)cn3Cc3ccnc(F)c3)n2)nc1
CLASS_LABEL: condition not met

COMPOUND: COc1cc(N2CCC[C@@H]2c2csc(NC(=O)c3cccn3Cc3ccnc(F)c3)n2)ccc1OC1CCN(C(C)=O)CC1
CLASS_LABEL: condition met

COMPOUND: O=C(Nc1nc([C@H]2CCCN2c2ccc(OC3COC3)cc2)cs1)c1cccn1Cc1ccncc1
CLASS_LABEL: condition met

The reported measurements were obtained from patent US20230286973A1.
